- Experimental target: Rap guanine nucleotide exchange factor 4 (Homo sapiens)
- Protocol summary: Confirmatory qHTS for antagonist of cAMP-regulated guanine nucleotide exchange factor 4 (EPAC2) (AID 1645885); also: nearly all actives have a fitted effect of over 25% in size
- Condition: EPAC2 Rap1B-BODIPY-GDP exchange fluorescence, biochemical; series mostly up to 12.7 µM
Records with an inconclusive call do not appear. Activity calls are given as the source filed them. Calls follow the shape of the dose curve; as a rule, active = well fitted inhibition curve with a large enough effect; inconclusive = small, poorly fitted or top-dose-only effect; inactive = no such curve, though single readings can be large or run the other way.
Give one outcome, nothing more. List: active, inactive

Q. Outcome logged for Cc1[nH]c2ccccc2c1C(c1ccccc1)c1ccc(Cl)s1 (stereo not drawn) in this assay:
A. inactive

Q. Outcome logged for COc1ccc(CCn2c(O)cc3nn(-c4nc5ccccc5s4)c(=O)c-3c2C)cc1 in this assay:
A. inactive

Q. Outcome logged for CC(C)n1cc(/C=C/c2cc[n+](C)cc2)c2ccccc21 in this assay:
A. inactive

Q. Outcome logged for Cc1ccc(-c2nnc(Nc3ccc(OCC(N)=O)cc3)c3ccccc23)cc1S(N)(=O)=O in this assay:
A. inactive

Q. Outcome logged for COc1cc(S(=O)(=O)NC2CCCCC2C)ccc1Cl (stereo not drawn) in this assay:
A. inactive

Q. Outcome logged for COc1cccc(C2=NN(C(=O)c3ccco3)C(c3ccco3)C2)c1 (stereo not drawn) in this assay:
A. inactive

Q. Outcome logged for COc1ccc2oc(C(=O)Nc3ccc(N4CCOCC4)cc3)c(C)c2c1 in this assay:
A. inactive

Q. Outcome logged for CCOc1ccc(NC(=O)/C(C#N)=C/c2ccc(N3CCCC3)c(C)c2)cc1 in this assay:
A. inactive

Q. Outcome logged for O=C(NCc1ccccc1F)c1ccc(CN2CC(=O)N3CCCCC3C2=O)cc1 (stereo not drawn) in this assay:
A. inactive

Q. Outcome logged for CC1Cc2nc(SCC(=O)N3CCCc4ccccc43)n(C)c(=O)c2S1 (stereo not drawn) in this assay:
A. inactive

Q. Outcome logged for O=C(O)c1ccccc1-c1ccc(/C=C/c2cc(C(F)(F)F)[nH]c(=O)n2)o1 in this assay:
A. inactive

Q. Outcome logged for O=C(CCn1cnc2onc(-c3ccc(F)cc3)c2c1=O)Nc1ccc(F)c(Cl)c1 in this assay:
A. inactive

Q. Outcome logged for COc1ccc(OCCC(=O)OCC(=O)Nc2ccc(S(=O)(=O)N3CCOCC3)cc2)cc1 in this assay:
A. inactive

Q. Outcome logged for COc1ccc(OC)c(NS(=O)(=O)c2cc3c4c(c2)CCN4C(=O)CC3)c1 in this assay:
A. inactive

Q. Outcome logged for COc1ccc2sc(-c3ccc(SC)cc3)c(C#CC(C)(C)O)c2c1 in this assay:
A. inactive

Q. Outcome logged for CCN1CCc2c(sc(NC(=O)c3ccc(S(=O)(=O)N4CCCCCC4)cc3)c2C(=O)NC)C1 in this assay:
A. inactive

Q. Outcome logged for Fc1ccc(-c2ccc3nccn3c2)cc1Cl in this assay:
A. inactive

Q. Outcome logged for CCc1cccc(NC(=O)COC(=O)/C=C/c2cccs2)c1 in this assay:
A. inactive

Q. Outcome logged for CCN(CC)c1ccc2c(c1)OC(N)=C(C#N)C2c1cccnc1 (stereo not drawn) in this assay:
A. active

Q. Outcome logged for Cc1c(C(=O)OCC(C)C)[nH]c2c1C(=O)CC(c1ccco1)C2 (stereo not drawn) in this assay:
A. inactive

Q. Outcome logged for CN(Cc1ccccc1)C(=O)C1CCCN(Cc2cccc(Cl)c2)C1 (stereo not drawn) in this assay:
A. inactive

Q. Outcome logged for Cc1cccc(CN2C(=O)c3ccccc3Sc3ccc(C(=O)N4CCCC4)cc32)c1 in this assay:
A. inactive

Q. Outcome logged for CCOC(=O)C1=C(C)N=c2s/c(=C\c3cccn3C)c(=O)n2C1c1cccc(OC)c1OC (stereo not drawn) in this assay:
A. inactive

Q. Outcome logged for Cc1ccc2oc(=O)c(/C=C(\O)c3cccs3)nc2c1 in this assay:
A. active

Q. Outcome logged for COc1ccc2c(c1)Cc1sc(NC(=O)c3cccc(C)c3)nc1-2 in this assay:
A. inactive

Q. Outcome logged for COc1cc(/C=C2/C(=O)NN(c3cccc(Cl)c3)C2=O)cc(OC)c1O in this assay:
A. inactive

Q. Outcome logged for N=C(N)c1ccc(N=Nc2c(O)ccc3c2[nH]c2ccccc23)cc1 in this assay:
A. inactive

Q. Outcome logged for COc1cc(CCc2ccccc2)c(C(=O)O)c(O)c1C/C=C(/C)CCC=C(C)C in this assay:
A. active

Q. Outcome logged for Cc1nc2c(C(=O)NCCc3ccc(Cl)cc3)c[nH]n2c(=O)c1Cc1ccccc1F in this assay:
A. inactive

Q. Outcome logged for Cn1c(SCC(=O)Nc2ccc(C(=O)O)cc2)nc2scc(-c3ccccc3Cl)c2c1=O in this assay:
A. active

Q. Outcome logged for O=C(N/N=C\c1c(O)ccc2ccccc12)c1ccc(S(=O)(=O)N2CCCCC2)cc1 in this assay:
A. inactive

Q. Outcome logged for CN(CC(=O)Nc1ccccc1Sc1ccccc1)C1CCCCC1 in this assay:
A. inactive

Q. Outcome logged for O=S1(=O)N=C(N(Cc2cccs2)c2ccc(O)cc2)c2ccccc21 in this assay:
A. inactive

Q. Outcome logged for COc1ccc(NC(=O)/C(C#N)=C\c2ccc(OCc3ccc(C(=O)O)cc3)c(OC)c2)cc1 in this assay:
A. inactive

Q. Outcome logged for CC(C)C1COC(c2cccn2Cc2ccccc2Cl)=N1 (stereo not drawn) in this assay:
A. inactive

Q. Outcome logged for Cc1cccc(Cn2c(=O)oc3ccc(C)cc32)c1 in this assay:
A. inactive

Q. Outcome logged for Cc1ccc(C)n1-c1ccc(C(=O)/C=C/N(C)C)cc1 in this assay:
A. inactive

Q. Outcome logged for CCc1nc2ccc(C(=O)Nc3ccc(OC)c(OC)c3)cn2c1N(C)CCC(C)C in this assay:
A. inactive

Q. Outcome logged for CCOC(=O)C1Nc2ccc(C(F)(F)F)cc2C2C=CCC12 (stereo not drawn) in this assay:
A. inactive

Q. Outcome logged for Cc1cc(C)cc(OCC(=O)OCC(=O)NC2CCCCCCC2)c1 in this assay:
A. inactive

Q. Outcome logged for COn1c2c(c3c4nonc4ccc31)CCCC2 in this assay:
A. inactive

Q. Outcome logged for N#CC(Sc1ccccn1)c1ccc(Cl)cc1Cl (stereo not drawn) in this assay:
A. inactive

Q. Outcome logged for CC(=O)c1cccc(NC(=O)c2c(-c3ccccc3)c(-c3ccccc3)nn(C)c2=O)c1 in this assay:
A. inactive

Where do these numbers come from? They come from PubChem BioAssay (NCATS).
